# experiment summary: Approximate solubility in water
# Format: physicochemical
# condition set: thermodynamic from solid; approximate; double distilled water added stepwise to 5 mg substance, sonification
quantity: solubility at 2 min

Give solubility at 2 min for the following molecule: CC(C)COc1ccc(CNC(=O)N(Cc2ccc(F)cc2)C2CCN(C)CC2)cc1
~14 mg/mL

* * *

# experiment summary: Approximate solubility in water
# Type: physicochemical
# condition set: approximate; double distilled water added stepwise to 5 mg substance, sonification
quantity: Solubility in water

CC(C)COc1ccc(CNC(=O)N(Cc2ccc(F)cc2)C2CCN(C)CC2)cc1 [Example 5] : > 500 mg/mL
CC(C)COc1ccc(CNC(=O)N(Cc2ccc(F)cc2)C2CCN(C)CC2)cc1.O=C(O)/C=C/C(=O)O [Example 3] : > 500 mg/mL
CC(C)COc1ccc(CNC(=O)N(Cc2ccc(F)cc2)C2CCN(C)CC2)cc1 [Example 4] : > 500 mg/mL
CC(C)COc1ccc(CNC(=O)N(Cc2ccc(F)cc2)C2CCN(C)CC2)cc1 [Example 9] : 4 mg/mL
CC(C)COc1ccc(CNC(=O)N(Cc2ccc(F)cc2)C2CCN(C)CC2)cc1 [Example 6] : > 250 mg/mL

Switching to the query record.
Provide only the value of recorded Solubility in water for CC(C)COc1ccc(CNC(=O)N(Cc2ccc(F)cc2)C2CCN(C)CC2)cc1 [Example 7]
> 500 mg/mL

Hey, just so you know, these numbers are from patent US7868176B2.
